Experiment: Plasma concentration in NOD/SCID mouse at 100 mg/kg, po measured at 1 hr
Type: ADME, organism-based
Set-up: dose 100 mg/kg, route oral
concentration at 1 h by entry:
Give just the numeric value; ng/mL need not be written.

• CC[C@@H]1CC[C@@H](C(=O)N2CCN(C(C)=O)[C@H](C)C2)N1C(=O)C1=C(C(C)C)N2C(=N[C@@](C)(c3ccc(Cl)cc3)[C@H]2c2ccc(Cl)cc2)S1 = 59600

Next up:
Record CC(C)C1=C(C(=O)N2[C@H](C)CC[C@H]2C(=O)N2CCN(C)[C@H](C)C2)SC2=N[C@@](C)(c3ccc(Cl)cc3)[C@@H](c3ccc(Cl)cc3)N21 . Reported concentration at 1 h: 6900

These entries and their values trace back to ChEMBL document CHEMBL2396597.
